Parameter: pIC50. Scope: all listed entries.
Target: CCR2 (Homo sapiens)
Construct: endogenous in cells; host or cells: THP-1
Sequence (P41597 1-360 isoform P41597-2): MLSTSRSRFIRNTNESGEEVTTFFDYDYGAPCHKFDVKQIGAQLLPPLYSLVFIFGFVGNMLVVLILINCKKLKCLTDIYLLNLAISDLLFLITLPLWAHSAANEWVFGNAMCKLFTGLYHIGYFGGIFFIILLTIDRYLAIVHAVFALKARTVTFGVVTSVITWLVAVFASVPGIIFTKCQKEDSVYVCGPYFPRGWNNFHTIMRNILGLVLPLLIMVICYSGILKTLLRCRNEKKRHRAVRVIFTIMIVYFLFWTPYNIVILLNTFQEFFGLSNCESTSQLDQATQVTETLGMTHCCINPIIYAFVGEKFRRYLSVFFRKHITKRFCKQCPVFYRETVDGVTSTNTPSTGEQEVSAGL
Assay: CCR2 inhibitory potency assay, calcium flux method, THP-1 cells stimulated with 100 nM CCL2
Type: cell-based
Settings: Table 4; CCR2 inhibition; read-out: mean IC50
Where no end group is shown, it is not given here. [ ]: non-standard residue; d: D form. Nle = CCCC[C@H](N)C(=O)O
Reminder that pIC50 means the negative base-10 logarithm of the concentration expressed in mol/L.

CCL2 variant, N-terminal FTNPTWDAGV (SEQ ID NO: 97), human CCL2 11-76 Met64Nle core [3P22-CCL2] ... 9.00
CCL2 variant, N-terminal FP(Nle)DGWRGLT (SEQ ID NO: 106), human CCL2 11-76 Met64Nle core (FP[Nle]DGWRGLT; also: followed by human CCL2 11-76 core with Met64Nle) [4P4-CCL2] ... 8.62
CCL2 variant, N-terminal FP(Nle)DGWGSRV (SEQ ID NO: 102), human CCL2 11-76 Met64Nle core (FP[Nle]DGWGSRV; also: followed by human CCL2 11-76 core with Met64Nle) [4P2-CCL2] ... 8.57
CCL2 variant, N-terminal FP(Nle)DGWHPLV (SEQ ID NO: 132), human CCL2 11-76 Met64Nle core (FP[Nle]DGWHPLV; also: followed by human CCL2 11-76 core with Met64Nle) [4P18-CCL2] ... 9.23

Below: the item to evaluate.
Query: What pIC50 appears in the records for this substance with CCR2 (Homo sapiens)? CCL2 variant, N-terminal FTNPTWATHV (SEQ ID NO: 82), human CCL2 11-76 Met64Nle core [3P7-CCL2]
Reply: 8.83
